Origin of measurements: paper PMC7896091

system: Myzus persicae; test: EPG monitoring of aphid probing and feeding (no-choice test); type: in vivo; conditions: 8-h EPG, 0.1% solution, mean ± SE, n = 12
Class T: Total duration of phloem phase (E) at least 4 h. Class F: Total duration of phloem phase (E) below 4 h.

>  <Compound>
CC(C)CCCC(C)CCCC(C)CCC[C@]1(C)CC(=O)O[C@H]1CCl (stereo in doubt)

>  <Qualitative label>
T

$$$$
>  <Compound>
C=CC(C)(CCCC(C)CCCC(C)CCCC(C)C)CC(=O)OCC (stereo not drawn)

>  <Qualitative label>
F

$$$$
>  <Compound>
CC(C)CCCC(C)CCCC(C)CCC[C@]1(C)CC(=O)O[C@@H]1CCl (stereo in doubt)

>  <Qualitative label>
F

$$$$
>  <Compound>
CC(C)CCCC(C)CCCC(C)CCC[C@]1(C)CC(=O)O[C@@H]1CBr (stereo in doubt)

>  <Qualitative label>
T

$$$$
